biological target: human GLP-1 receptor (human, UniProt P43220 24-463); test: cell-based or functional assay
Where no end group is shown, it is not given here. [ ]: non-standard residue; d: D form. Bip(2'-Et-4'-OMe) = CCc1cc(OC)ccc1-c1ccc(C[C@H](N)C(=O)O)cc1; αMePhe(2,6-F2) = C[C@](N)(Cc1c(F)cccc1F)C(=O)O; αMeBip(OMe) = alpha-methylated Bip(OMe); hhPhe = N[C@@H](CCCc1ccccc1)C(=O)O; αMeD = C[C@](N)(CC(=O)O)C(=O)O; αMeAPPA = not defined here; αMeS = C[C@](N)(CO)C(=O)O
quantity kind: cAMP release, % activity with respect to control, at 100 nM

cAMP release, % activity with respect to control, at 100 nM reading for VHAQGT[αMePhe(2,6-F2)]T[αMeS][αMeD][Bip(2'-Et-4'-OMe)][αMeAPPA] (not fully specified (C-terminus); reading uncertain) [Seq. ID. No. 124] : 89 % of control

Please give cAMP release, % activity with respect to control, at 100 nM, item by item, for the list that follows.
1. VHAQGTFT[αMeS]D[αMeBip(OMe)][hhPhe]-NH2 [Seq. ID. No. 34]
2. VHSQGT[αMePhe(2,6-F2)]T[αMeS]D[αMeBip(OMe)][hhPhe]-NH2 [Seq. ID. No. 49]

Reply:
99 % of control
86 % of control
